test: Multiple oral dosing for 14 days, pharmacokinetics in HCV infected subjects (Example 3); format: in vivo, human; details: human, plasma, oral, 400 mg, Day 14, 400 mg BID, mean; read-out: t½ (converted)
MEASUREMENT_TYPE: half-life (h)

1. CC(C)(C)NC(=O)N[C@H](C(=O)N1C[C@H]2[C@@H]([C@H]1C(=O)NC(CC1CCC1)C(=O)C(N)=O)C2(C)C)C(C)(C)C (mixture of isomers) [Formula Ia] :: 12.4

---

Assay: Multiple oral dosing for 14 days, pharmacokinetics in HCV infected subjects (Example 3)
Format: in vivo, human
Details: human, plasma, oral, 400 mg, Day 14, 400 mg TID, mean
Experimental: Multiple escalating doses of compound of Formula Ia were administered for 14 days to HCV positive subjects who were genotype 1 Interferon-a (with or without ribavirin) non responders. In a randomized, placebo controlled, third party blind study, multiple doses of 100 mg BID, 200 mg BID, 400 mg BID, 400 mg TID, and 600 mg TID of compound of Formula Ia or placebo in a 3:1 ratio with or without food were evaluated. […]
MEASUREMENT_TYPE: Vd/F

1. CC(C)(C)NC(=O)N[C@H](C(=O)N1C[C@H]2[C@@H]([C@H]1C(=O)NC(CC1CCC1)C(=O)C(N)=O)C2(C)C)C(C)(C)C (mixture of isomers) :: ~5000 L

---

experiment: Phase 1 rising-single-dose pharmacokinetic study in healthy adult subjects (Example 1); format: in vivo, human; details: human, plasma, po, 50 mg, single oral dose 50 mg, mean, n = 6; read-out: AUC(l)
MEASUREMENT_TYPE: AUC (ng·h/mL)

1. CC(C)(C)NC(=O)N[C@H](C(=O)N1C[C@H]2[C@@H]([C@H]1C(=O)NC(CC1CCC1)C(=O)C(N)=O)C2(C)C)C(C)(C)C (mixture of isomers) [Formula Ia] :: 181

---

test: Phase 1 rising-single-dose pharmacokinetic study in healthy adult subjects (Example 1); type: in vivo, human; details: human, plasma; single oral dose 400 mg, mean, n = 6
MEASUREMENT_TYPE: Cmax (ng/mL)

1) CC(C)(C)NC(=O)N[C@H](C(=O)N1C[C@H]2[C@@H]([C@H]1C(=O)NC(CC1CCC1)C(=O)C(N)=O)C2(C)C)C(C)(C)C (mixture of isomers) :: 445

---

assay: Multiple oral dosing for 14 days, pharmacokinetics in HCV infected subjects (Example 3); assay type: in vivo, human; conditions: human, plasma, oral, 400 mg, Day 14, 400 mg BID, median; read-out: Tmax
MEASUREMENT_TYPE: Tmax

1. CC(C)(C)NC(=O)N[C@H](C(=O)N1C[C@H]2[C@@H]([C@H]1C(=O)NC(CC1CCC1)C(=O)C(N)=O)C2(C)C)C(C)(C)C (mixture of isomers) :: 1 h

---

test: Phase 1 rising-single-dose pharmacokinetic study in healthy adult subjects (Example 1); type: in vivo, human; conditions: human, plasma, po, 100 mg, single oral dose 100 mg, mean, n = 6; read-out: AUC(tf)
MEASUREMENT_TYPE: AUC (ng·h/mL)

1. CC(C)(C)NC(=O)N[C@H](C(=O)N1C[C@H]2[C@@H]([C@H]1C(=O)NC(CC1CCC1)C(=O)C(N)=O)C2(C)C)C(C)(C)C (mixture of isomers) [Formula Ia] :: 337

---

Test: Phase 1 rising-single-dose pharmacokinetic study in healthy adult subjects (Example 1)
Type: in vivo, human
Conditions: human, plasma; single oral dose 600 mg, mean, n = 6
Protocol: A Phase 1, randomized, third-party-blind (within dose level), placebo-controlled, rising-single-dose study of compounds of Formulae I-XXVI was conducted in healthy adult subjects. […] Plasma concentrations of compound of Formula Ia were determined using a validated liquid chromatography tandem mass spectrometry (LC-MS/MS) method. The assay lower limit of quantitation (LLOQ) was 0.50 ng/mL, and the method was validated over the concentration range of 0.50 to 1000 ng/mL. […]
MEASUREMENT_TYPE: Vd/F

1) CC(C)(C)NC(=O)N[C@H](C(=O)N1C[C@H]2[C@@H]([C@H]1C(=O)NC(CC1CCC1)C(=O)C(N)=O)C2(C)C)C(C)(C)C (mixture of isomers) :: 4110 L

---

Experiment: Phase 1 rising-single-dose pharmacokinetic study in healthy adult subjects (Example 1)
Type: in vivo, human
Details: human, plasma, po, 800 mg, single oral dose 800 mg, mean, n = 6; read-out: AUC(l)
Protocol: A Phase 1, randomized, third-party-blind (within dose level), placebo-controlled, rising-single-dose study of compounds of Formulae I-XXVI was conducted in healthy adult subjects. […] Plasma concentrations of compound of Formula Ia were determined using a validated liquid chromatography tandem mass spectrometry (LC-MS/MS) method. The assay lower limit of quantitation (LLOQ) was 0.50 ng/mL, and the method was validated over the concentration range of 0.50 to 1000 ng/mL. […]
MEASUREMENT_TYPE: AUC (ng·h/mL)

1. CC(C)(C)NC(=O)N[C@H](C(=O)N1C[C@H]2[C@@H]([C@H]1C(=O)NC(CC1CCC1)C(=O)C(N)=O)C2(C)C)C(C)(C)C (mixture of isomers) :: 2320

---

assay: Multiple oral dosing for 14 days, pharmacokinetics in HCV infected subjects (Example 3); format: in vivo, human; conditions: human, plasma, oral, 400 mg, Day 14, 400 mg BID, mean
MEASUREMENT_TYPE: Cmax (ng/mL)

1. CC(C)(C)NC(=O)N[C@H](C(=O)N1C[C@H]2[C@@H]([C@H]1C(=O)NC(CC1CCC1)C(=O)C(N)=O)C2(C)C)C(C)(C)C (mixture of isomers) :: 459

---

assay: Phase 1 rising-single-dose pharmacokinetic study in healthy adult subjects (Example 1); assay type: in vivo, human; settings: human, plasma; single oral dose 200 mg, mean, n = 6
MEASUREMENT_TYPE: Cmax (ng/mL)

1. CC(C)(C)NC(=O)N[C@H](C(=O)N1C[C@H]2[C@@H]([C@H]1C(=O)NC(CC1CCC1)C(=O)C(N)=O)C2(C)C)C(C)(C)C (mixture of isomers) :: 281

---

test: Food-effect crossover bioavailability study, 600 mg fed vs fasted, healthy adult subjects (Example 2); type: in vivo, human; conditions: both sexes, human, plasma, po, 600 mg, 600 mg PO, fasted, mean, balanced data; read-out: AUC(tf)
MEASUREMENT_TYPE: AUC (ng·h/mL)

1. CC(C)(C)NC(=O)N[C@H](C(=O)N1C[C@H]2[C@@H]([C@H]1C(=O)NC(CC1CCC1)C(=O)C(N)=O)C2(C)C)C(C)(C)C (mixture of isomers) :: 1720

---

experiment: Multiple oral dosing for 14 days, pharmacokinetics in HCV infected subjects (Example 3); type: in vivo, human; conditions: Day 14, 400 mg BID, at 0 hour (trough) predose, mean
MEASUREMENT_TYPE: Cmin (ng/mL)

1) CC(C)(C)NC(=O)N[C@H](C(=O)N1C[C@H]2[C@@H]([C@H]1C(=O)NC(CC1CCC1)C(=O)C(N)=O)C2(C)C)C(C)(C)C (mixture of isomers) :: 48.8

---

assay: Food-effect crossover bioavailability study, 600 mg fed vs fasted, healthy adult subjects (Example 2); assay type: in vivo, human; settings: both sexes, human, plasma, po, 600 mg, 600 mg PO, fasted, n = 20; read-out: AUC(l), model-based (least square) mean
MEASUREMENT_TYPE: AUC (ng·h/mL)

1) CC(C)(C)NC(=O)N[C@H](C(=O)N1C[C@H]2[C@@H]([C@H]1C(=O)NC(CC1CCC1)C(=O)C(N)=O)C2(C)C)C(C)(C)C (mixture of isomers) :: 1650

---

experiment: Food-effect crossover bioavailability study, 600 mg fed vs fasted, healthy adult subjects (Example 2); assay type: in vivo, human; conditions: both sexes, human, plasma, po, 600 mg, 600 mg PO, fasted, n = 20; read-out: AUC(tf), model-based (least square) mean
MEASUREMENT_TYPE: AUC

1. CC(C)(C)NC(=O)N[C@H](C(=O)N1C[C@H]2[C@@H]([C@H]1C(=O)NC(CC1CCC1)C(=O)C(N)=O)C2(C)C)C(C)(C)C (mixture of isomers) :: 1620 ng·h/mL

---

test: Food-effect crossover bioavailability study, 600 mg fed vs fasted, healthy adult subjects (Example 2); type: in vivo, human; details: both sexes, human, plasma, po, 600 mg, 600 mg PO, fasted, mean
MEASUREMENT_TYPE: concentration at 8 hours (ng/mL)

1) CC(C)(C)NC(=O)N[C@H](C(=O)N1C[C@H]2[C@@H]([C@H]1C(=O)NC(CC1CCC1)C(=O)C(N)=O)C2(C)C)C(C)(C)C (mixture of isomers) [Formula Ia] :: 37.9

---

test: Multiple oral dosing for 14 days, pharmacokinetics in HCV infected subjects (Example 3); assay type: in vivo, human; settings: human, plasma, oral, 400 mg, Day 1, 400 mg BID, median; read-out: Tmax
MEASUREMENT_TYPE: Tmax

1) CC(C)(C)NC(=O)N[C@H](C(=O)N1C[C@H]2[C@@H]([C@H]1C(=O)NC(CC1CCC1)C(=O)C(N)=O)C2(C)C)C(C)(C)C (mixture of isomers) [Formula Ia] :: 1.5 h
